Property: pKd; scope: individual compounds
Molecular target: recombinant PI3Kalpha (shortened form of the catalytic subunit) (Homo sapiens, UniProt P42336)
Sequence (P42336 151-1068 limits assumed): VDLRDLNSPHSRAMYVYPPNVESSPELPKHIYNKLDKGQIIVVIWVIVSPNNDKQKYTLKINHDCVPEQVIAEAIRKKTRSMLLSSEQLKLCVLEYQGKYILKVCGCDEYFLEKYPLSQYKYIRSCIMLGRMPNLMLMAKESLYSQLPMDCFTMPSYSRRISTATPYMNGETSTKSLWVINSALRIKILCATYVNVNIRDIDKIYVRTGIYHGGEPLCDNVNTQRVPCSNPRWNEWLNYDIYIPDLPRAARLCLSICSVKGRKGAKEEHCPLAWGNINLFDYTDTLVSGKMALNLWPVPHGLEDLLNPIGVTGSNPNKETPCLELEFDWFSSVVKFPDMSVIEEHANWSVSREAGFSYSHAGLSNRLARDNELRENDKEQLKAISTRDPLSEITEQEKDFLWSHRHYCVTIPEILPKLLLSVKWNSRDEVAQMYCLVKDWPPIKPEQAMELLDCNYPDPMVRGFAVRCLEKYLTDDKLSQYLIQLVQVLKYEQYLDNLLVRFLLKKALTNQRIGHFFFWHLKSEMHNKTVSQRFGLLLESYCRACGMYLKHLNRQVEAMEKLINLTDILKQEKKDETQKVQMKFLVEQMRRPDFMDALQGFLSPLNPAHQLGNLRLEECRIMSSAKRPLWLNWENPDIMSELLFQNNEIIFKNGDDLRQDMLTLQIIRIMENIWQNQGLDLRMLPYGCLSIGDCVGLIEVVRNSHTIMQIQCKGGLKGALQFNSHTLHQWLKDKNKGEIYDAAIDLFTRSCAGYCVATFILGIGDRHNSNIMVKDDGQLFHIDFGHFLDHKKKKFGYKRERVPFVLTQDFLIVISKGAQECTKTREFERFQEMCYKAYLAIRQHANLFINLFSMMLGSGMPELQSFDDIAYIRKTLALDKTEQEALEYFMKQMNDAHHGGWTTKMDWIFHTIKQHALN
Assay: BIACORE PI3K binding assay (SPR)
Conditions: 25° C.
pKd: −log10 of the molar value.

compound | pKd
CN1CCN(c2cc(C#N)cc(-n3c(-c4cc(-c5cnc6[nH]ccc6c5)ccn4)cn(C)c3=O)c2)CC1 [Example A98] | 5.00 to 7.00

Query: # query: pKd of entry Cn1cc(-c2cc(-c3cnc4[nH]c(C(F)(F)F)cc4c3)ccn2)n(-c2ccc(C(C)(C)C#N)cc2)c1=O [Example A27]
Result: 5.00 to 7.00

Query: GET /values?readout=pKd&item= Cn1cc(-c2cc(-c3cccnc3)ccn2)n(-c2ccc(C(C)(C)C#N)cc2)c1=O [Example A10]
Result: 5.00 to 7.00

Query: Bench note: what pKd did Cn1cc(-c2cc(-c3cnc4ccccc4c3)ccn2)n(-c2ccc(C(C)(C)C(=O)O)cc2)c1=O [Example A22] show?
Result: 5.00 to 7.00

Query: What value of pKd has been recorded for this entry: Cn1cc(-c2cc(-c3ccsc3)ccn2)n(-c2ccc(C(C)(C)C#N)cc2)c1=O [Example A26]
Result: 5.00 to 7.00

Query: So what's the measured pKd for this one? Cn1cc(-c2cc(-c3ccc(N)cc3)ccn2)n(-c2ccc(N3CCNCC3)c(C(F)(F)F)c2)c1=O [Example A60]
Result: 5.00 to 7.00

Query: Need pKd, item Cn1cc(-c2cc(-c3ccc4ncncc4c3)ccn2)n(-c2ccc(C(C)(C)C#N)cc2)c1=O [Example A91]
Result: 5.00 to 7.00

====

Target: PI3Kbeta (Homo sapiens, UniProt P42338)
Sequence (P42338 whole entry): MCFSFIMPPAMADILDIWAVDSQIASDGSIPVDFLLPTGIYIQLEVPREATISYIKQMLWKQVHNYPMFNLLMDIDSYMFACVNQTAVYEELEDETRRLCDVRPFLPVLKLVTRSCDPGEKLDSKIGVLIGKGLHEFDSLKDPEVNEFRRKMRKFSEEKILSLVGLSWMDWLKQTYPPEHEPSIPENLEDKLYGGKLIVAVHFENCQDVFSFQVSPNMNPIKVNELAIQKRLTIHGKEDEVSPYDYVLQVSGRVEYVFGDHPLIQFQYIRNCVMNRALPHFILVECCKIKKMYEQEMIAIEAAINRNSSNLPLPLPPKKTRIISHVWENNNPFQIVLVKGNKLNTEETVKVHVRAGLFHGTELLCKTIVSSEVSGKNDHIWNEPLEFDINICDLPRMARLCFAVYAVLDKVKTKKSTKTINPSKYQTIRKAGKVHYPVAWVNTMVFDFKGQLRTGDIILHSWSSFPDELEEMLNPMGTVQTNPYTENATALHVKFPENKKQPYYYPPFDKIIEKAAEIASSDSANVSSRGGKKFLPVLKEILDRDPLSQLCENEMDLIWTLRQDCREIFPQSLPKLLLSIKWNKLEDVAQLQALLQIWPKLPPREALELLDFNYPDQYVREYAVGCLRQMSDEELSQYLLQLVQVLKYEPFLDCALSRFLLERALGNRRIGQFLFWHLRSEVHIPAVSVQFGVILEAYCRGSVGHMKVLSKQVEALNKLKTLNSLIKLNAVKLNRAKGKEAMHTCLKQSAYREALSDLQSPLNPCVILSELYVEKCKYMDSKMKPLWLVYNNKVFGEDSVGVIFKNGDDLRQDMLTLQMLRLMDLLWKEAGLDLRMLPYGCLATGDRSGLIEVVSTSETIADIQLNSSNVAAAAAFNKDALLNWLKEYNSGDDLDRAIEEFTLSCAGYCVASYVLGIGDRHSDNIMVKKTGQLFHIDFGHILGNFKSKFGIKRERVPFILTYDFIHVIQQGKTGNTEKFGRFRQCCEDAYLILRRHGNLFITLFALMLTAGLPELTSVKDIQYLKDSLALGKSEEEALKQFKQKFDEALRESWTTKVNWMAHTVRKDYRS
Sequence (P27986 whole entry partner): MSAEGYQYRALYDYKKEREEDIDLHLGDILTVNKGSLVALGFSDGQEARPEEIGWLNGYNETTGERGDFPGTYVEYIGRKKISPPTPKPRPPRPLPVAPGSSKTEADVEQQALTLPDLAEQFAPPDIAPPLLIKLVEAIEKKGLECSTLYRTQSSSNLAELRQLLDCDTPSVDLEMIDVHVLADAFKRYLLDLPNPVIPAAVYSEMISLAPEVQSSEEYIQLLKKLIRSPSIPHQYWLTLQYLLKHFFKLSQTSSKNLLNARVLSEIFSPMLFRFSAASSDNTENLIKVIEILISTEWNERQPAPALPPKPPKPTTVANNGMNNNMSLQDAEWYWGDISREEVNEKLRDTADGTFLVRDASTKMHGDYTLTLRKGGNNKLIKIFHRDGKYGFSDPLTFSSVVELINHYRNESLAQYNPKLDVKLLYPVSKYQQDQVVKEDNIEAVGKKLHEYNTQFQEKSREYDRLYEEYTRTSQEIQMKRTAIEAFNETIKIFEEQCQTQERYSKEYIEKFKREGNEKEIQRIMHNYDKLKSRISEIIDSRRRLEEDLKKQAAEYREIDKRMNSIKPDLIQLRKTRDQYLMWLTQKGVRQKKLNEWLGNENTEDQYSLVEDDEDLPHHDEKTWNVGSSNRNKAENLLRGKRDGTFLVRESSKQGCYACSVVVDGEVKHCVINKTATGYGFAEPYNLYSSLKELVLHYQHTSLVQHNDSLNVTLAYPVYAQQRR
Experiment: Biochemical PI3Kbeta assay (neomycin SPA, lipid phosphorylation)
Conditions: human recombinant GST-PI3K
recorded_endpoint: IC50

smiles_input | recorded_endpoint | measured_result
Cn1cc(-c2cc(-c3ccc(N)cc3)ccn2)n(-c2ccc(N3CCNCC3)c(C(F)(F)F)c2)c1=O | IC50 | > 10 µM
Cn1cc(-c2cc(-c3cnc4[nH]ccc4c3)ccn2)n(-c2ccc(N3CCN(S(C)(=O)=O)CC3)c(C(F)(F)F)c2)c1=O | IC50 | 0.1 to 10 µM
Cn1cc(-c2cc(-c3cnc4[nH]ncc4c3)ccn2)n(-c2ccc(N3CCNCC3)c(C(F)(F)F)c2)c1=O | IC50 | 0.1 to 10 µM
Cn1cc(-c2cc(-c3cnc4[nH]ccc4c3)ccn2)n(-c2ccc(C(C)(C)C(N)=O)cc2)c1=O | IC50 | 0.1 to 10 µM
Cn1cc(-c2cc(-c3cnc4c(c3)CC(=O)N4)ccn2)n(-c2ccc(C(C)(C)C#N)cc2)c1=O | IC50 | 0.1 to 10 µM

Query: What value of IC50 on PI3Kbeta (Homo sapiens, UniProt P42338) does CC(C)c1cccc(-n2c(-c3cc(-c4cnc5[nH]ccc5c4)ccn3)cn(C)c2=O)c1 have?
Result: 0.1 to 10 µM

Query: Hi! What's the reported IC50 for Cn1cc(-c2cc(-c3cnc4[nH]ccc4c3)ccn2)n(-c2ccc(F)c(C(F)(F)F)c2)c1=O on PI3Kbeta (Homo sapiens, UniProt P42338)?
Result: > 10 µM

Query: Give recorded IC50 with PI3Kbeta (Homo sapiens, UniProt P42338) for the following compound: COc1cccc(-c2ccnc(-c3cn(C)c(=O)n3-c3ccc(C(C)(C)C#N)cc3)c2)c1
Result: > 10 µM

Query: PI3Kbeta (Homo sapiens, UniProt P42338) / IC50 / COc1ccc(Cn2c(-c3cc(-c4cnc5[nH]ccc5c4)ccn3)cn(C)c2=O)cc1 : value?
Result: > 10 µM

Query: Recorded IC50 for Cn1cc(-c2cc(-c3ccc4[nH]ncc4c3)ccn2)n(-c2ccc(C(C)(C)C#N)cc2)c1=O with PI3Kbeta (Homo sapiens, UniProt P42338), please?
Result: 0.1 to 10 µM

====

Biological target: DNA-PK protein complex (Homo sapiens)
Assay: Biochemical DNA-PK assay (FlashPlate)
recorded_endpoint: IC50

Below are worked cases with known answers.
smiles_input | measured_result
O=c1[nH]cc(-c2cc(-c3cnc4ccccc4c3)ccn2)n1-c1ccc(N2CCNCC2)c(C(F)(F)F)c1 | 100 to 10000 nM
COc1cccc(-c2ccnc(-c3cn(C)c(=O)n3-c3ccc(C(C)(C)C#N)cc3)c2)c1 | 0.1 to 100 nM
Cn1cc(-c2cc(-c3ccc(N)nc3)ccn2)n(-c2ccc(C(C)(C)C#N)cc2)c1=O | 100 to 10000 nM
CCN1CCN(c2ccc(-n3c(-c4cc(-c5cnc6[nH]ccc6c5)ccn4)cn(C)c3=O)cc2C(F)(F)F)CC1 | 0.1 to 100 nM
COc1ccc(Cn2c(-c3cc(-c4cnc(NC(C)=O)c(C(F)(F)F)c4)ccn3)cn(C)c2=O)cc1 | > 10000 nM

Query: Fill in the blank: the reported IC50 of Cn1cc(-c2cc(-c3cnc4[nH]ccc4c3)ccn2)n(-c2ccccc2C#N)c1=O is ____.
Result: > 10000 nM

Query: Requested field: IC50. Item: Cn1cc(-c2cc(-c3cnc4[nH]ccc4c3)ccn2)n(-c2ccc(N3CCN(Cc4cccnc4)CC3)c(C(F)(F)F)c2)c1=O
Result: 100 to 10000 nM

Query: Name the reported IC50 value associated with the compound COc1ccc(Cn2c(-c3cc(-c4cnc(N)c(C(F)(F)F)c4)ccn3)cn(C)c2=O)cc1
Result: 100 to 10000 nM

====

recorded_endpoint: melting point (°C)
// units = °C; emit number, no label

compound | melting point, °C
Cn1cc(-c2cc(-c3cnc4[nH]cc(F)c4c3)ccn2)n(-c2ccc(F)c(C(F)(F)F)c2)c1=O [Example A105] | 268
Cn1cc(-c2cc(-c3cnc4[nH]ccc4c3)ccn2)n(-c2cccc(C#N)c2)c1=O [Example A55] | 265

Query: Quick one: melting point for Cn1cc(-c2cc(-c3cnc4[nH]ncc4c3)ccn2)n(-c2ccc(C(C)(C)C#N)cc2)c1=O [Example A41] ?
Result: 294

Query: Tell me the measured melting point of Cn1cc(-c2cc(-c3ccc(N)nc3)ccn2)n(-c2ccc(C(C)(C)C#N)cc2)c1=O [Example A8] , please.
Result: 252

====

Target: recombinant PI3Kalpha (shortened form of the catalytic subunit) (Homo sapiens)
Assay: BIACORE PI3K binding assay (SPR)
Settings: 25° C.
pKd: −log10 of the molar value.
Reported pKd values for a set of molecules

smiles_input | experimental_target | recorded_endpoint | measured_result
COc1ccc(-c2ccnc(-c3cn(C)c(=O)n3-c3ccc(C(C)(C)C#N)cc3)c2)cn1 | recombinant PI3Kalpha (shortened form of the catalytic subunit) (Homo sapiens) | pKd | 5.00 to 7.00
Cn1cc(-c2cc(-c3cnc4[nH]ccc4c3)ccn2)n(-c2cc(F)cc(C#N)c2)c1=O | recombinant PI3Kalpha (shortened form of the catalytic subunit) (Homo sapiens) | pKd | 5.00 to 7.00
CC(C)(CN)c1ccc(-n2c(-c3cc(-c4cnc5ccccc5c4)ccn3)c[nH]c2=O)cc1 | recombinant PI3Kalpha (shortened form of the catalytic subunit) (Homo sapiens) | pKd | 5.00 to 7.00
Cn1cc(-c2cc(-c3cnc(N)c(C#N)c3)ccn2)n(-c2ccc(C(C)(C)C#N)cc2)c1=O | recombinant PI3Kalpha (shortened form of the catalytic subunit) (Homo sapiens) | pKd | 7.00 to 10.00
Cn1cc(-c2cc(-c3ccnc4[nH]ccc34)ccn2)n(-c2ccc(C(C)(C)C#N)cc2)c1=O | recombinant PI3Kalpha (shortened form of the catalytic subunit) (Homo sapiens) | pKd | 5.00 to 7.00
Cn1cc(-c2cc(-c3cnc4[nH]ccc4c3)ccn2)n(-c2ccc(N3CCNCC3)c(C(F)(F)F)c2)c1=O | recombinant PI3Kalpha (shortened form of the catalytic subunit) (Homo sapiens) | pKd | 7.00 to 10.00

Continue with the molecule presented below.
Query: Can you look up the measured pKd of CCc1cc(-c2c[nH]c3ncc(-c4ccnc(-c5cn(C)c(=O)n5-c5ccc(C(C)(C)C#N)cc5)c4)cc23)nc(N)n1 for me?
Result: 5.00 to 7.00

====

recorded_endpoint: melting point

smiles_input | melting point
CC(C)(CN)c1ccc(-n2c(-c3cc(-c4cnc5ccccc5c4)ccn3)c[nH]c2=O)cc1 | 244 to 247 °C

Query: Sample Cn1cc(-c2cc(-c3cnc4[nH]ccc4c3)ccn2)n(-c2ccccc2)c1=O — what was its melting point?
Result: 264 °C

Query: Endpoint output: melting point of Cn1cc(-c2cc(-c3cnc4[nH]cc(C(F)(F)F)c4c3)ccn2)n(-c2ccc(C(C)(C)C#N)cc2)c1=O . Value?
Result: 159 °C

Query: Returns the measured melting point for the input compound. Input: CN1CCN(c2ccc(-n3c(-c4cc(-c5cnc6[nH]ccc6c5)ccn4)cn(C)c3=O)cc2C(F)(F)F)CC1
Result: 241 °C

Query: Param item = Cn1cc(-c2cc(-c3cccnc3)ccn2)n(-c2ccc(C(C)(C)C#N)cc2)c1=O ; retrieve measured melting point.
Result: 180 °C

Query: Any idea what its melting point is? The compound is Cn1cc(-c2cc(-c3ccc4[nH]ncc4c3)ccn2)n(-c2ccc(C(C)(C)C#N)cc2)c1=O
Result: 165 °C

Query: If you can, please state the reported melting point value of CCOC(=O)C(C)(C)c1ccc(-n2c(-c3cc(-c4cnc5ccccc5c4)ccn3)cn(C)c2=O)cc1 .
Result: 158 °C

Query: Quick one: melting point for Cn1cc(-c2cc(-c3ccc4[nH]ccc4c3)ccn2)n(-c2ccc(C(C)(C)C#N)cc2)c1=O ?
Result: 238 °C
